subject of test: 5-hydroxytryptamine receptor 2A (Homo sapiens, UniProt P28223)
Sequence (P28223 whole entry): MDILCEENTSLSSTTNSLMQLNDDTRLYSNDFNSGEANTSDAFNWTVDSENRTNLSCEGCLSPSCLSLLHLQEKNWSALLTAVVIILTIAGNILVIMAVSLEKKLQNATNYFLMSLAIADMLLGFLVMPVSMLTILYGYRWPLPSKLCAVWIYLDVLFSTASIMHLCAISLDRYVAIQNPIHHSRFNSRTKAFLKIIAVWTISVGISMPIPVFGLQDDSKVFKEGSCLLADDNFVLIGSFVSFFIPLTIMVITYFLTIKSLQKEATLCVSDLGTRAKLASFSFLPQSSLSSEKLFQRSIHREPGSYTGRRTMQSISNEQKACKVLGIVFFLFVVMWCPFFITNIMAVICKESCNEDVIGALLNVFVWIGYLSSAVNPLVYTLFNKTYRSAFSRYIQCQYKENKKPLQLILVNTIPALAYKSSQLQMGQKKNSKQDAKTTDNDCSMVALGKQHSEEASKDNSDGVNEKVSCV
method summary: Binding affinity to human 5-HT2A agonist site receptor by radioligand displacement assay

smiles str	Ki
O=C(Cc1ccccc1)NC1CCN(CCCN2C(=O)COc3ccccc32)CC1	≥ 1000 nM

###

subject of test: UniProt:P08173
Sequence (P08173 whole entry): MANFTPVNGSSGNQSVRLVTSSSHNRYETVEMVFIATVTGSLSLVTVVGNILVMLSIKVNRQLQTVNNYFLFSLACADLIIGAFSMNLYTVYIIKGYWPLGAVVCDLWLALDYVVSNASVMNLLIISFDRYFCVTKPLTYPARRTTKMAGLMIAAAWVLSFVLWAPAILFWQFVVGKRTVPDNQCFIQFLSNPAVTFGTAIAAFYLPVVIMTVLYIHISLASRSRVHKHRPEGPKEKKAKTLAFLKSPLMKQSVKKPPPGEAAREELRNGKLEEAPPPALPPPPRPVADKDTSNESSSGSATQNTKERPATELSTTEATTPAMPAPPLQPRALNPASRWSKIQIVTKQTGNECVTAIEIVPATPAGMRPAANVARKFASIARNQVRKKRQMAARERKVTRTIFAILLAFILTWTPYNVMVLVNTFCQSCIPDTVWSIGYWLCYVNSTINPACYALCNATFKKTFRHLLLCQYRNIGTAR
method summary: Agonist activity at human muscarinic M4 receptor expressed in BHK-21 cells coexpressing Galpha16 subunit assessed as increase of acetylcholine-induced calcium flux by FLIPR assay
Format: functional, cell-based
endpoint name: EC50

smiles str	subject of test	measured result
COc1ccc(CC(=O)NC2CCN(CCCN3C(=O)CCc4cc(F)c(F)cc43)CC2)cc1OC	UniProt:P08173	0.3 µM

###

Listed here are compounds together with their documented Ki.
subject of test: UniProtKB P28335
Sequence (P28335 whole entry): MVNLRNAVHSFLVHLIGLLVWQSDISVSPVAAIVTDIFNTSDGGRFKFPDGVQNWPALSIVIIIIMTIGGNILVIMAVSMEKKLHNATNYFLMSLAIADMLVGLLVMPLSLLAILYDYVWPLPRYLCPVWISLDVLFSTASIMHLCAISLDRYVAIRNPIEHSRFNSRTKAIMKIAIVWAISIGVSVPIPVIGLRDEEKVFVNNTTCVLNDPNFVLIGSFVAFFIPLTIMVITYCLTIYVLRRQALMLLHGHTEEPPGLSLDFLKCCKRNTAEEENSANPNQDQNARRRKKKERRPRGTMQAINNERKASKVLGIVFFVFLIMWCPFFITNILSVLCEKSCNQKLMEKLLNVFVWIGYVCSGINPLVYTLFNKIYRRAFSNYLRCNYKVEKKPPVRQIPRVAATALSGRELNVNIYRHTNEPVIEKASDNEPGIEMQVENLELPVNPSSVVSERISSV
method summary: Binding affinity to human 5HT2C receptor agonist site by radioligand displacement assay
endpoint name: Ki (nM)

smiles str	subject of test	relation sign	measured result
Cc1ccccc1CN1CCC(N2CCC(n3c(=O)[nH]c4ccccc43)CC2)CC1	UniProtKB P28335	=	85
O=C(Cc1ccccc1)NC1CCN(CCCN2C(=O)COc3ccccc32)CC1	UniProtKB P28335	≥	1000

###

method summary: Binding affinity to human delta2 opioid receptor by radioligand displacement assay
endpoint name: Ki

smiles str	measured result
O=C(Cc1ccccc1)NC1CCN(CCCN2C(=O)COc3ccccc32)CC1	≥ 1000 nM
